Attribution: ChEMBL document CHEMBL1142346

system: Pyricularia grisea; test: Antifungal activity against Magnaporthe grisea infected rice plant assessed as logarithm of fungal control value at 100 ppm after 5 days; type: functional

{"sampleSmiles": "COc1ccc(NC(=O)Cc2cs/c(=N/c3ccc([N+](=O)[O-])cc3)n2C)cc1", "targetOfAssay": "Pyricularia grisea", "Activity": 2}
{"sampleSmiles": "CCc1ccc(NC(=O)Cc2cs/c(=N\\c3ccc(C#N)c(Cl)c3)n2C)cc1", "targetOfAssay": "Pyricularia grisea", "Activity": 1.98}
{"sampleSmiles": "COc1ccc(NC(=O)Cc2cs/c(=N/c3ccc(SC)cc3)n2C)cc1", "targetOfAssay": "Pyricularia grisea", "Activity": 1.96}
{"sampleSmiles": "CCOc1ccc(/N=c2/scc(CC(=O)Nc3ccc(OC)cc3)n2C)cc1", "targetOfAssay": "Pyricularia grisea", "Activity": 1.98}
{"sampleSmiles": "Cn1c(CC(=O)Nc2ccc(Cl)cc2)cs/c1=N\\c1ccc(F)c(Cl)c1", "targetOfAssay": "Pyricularia grisea", "Activity": 1.98}
{"sampleSmiles": "COc1ccc(NC(=O)Cc2cs/c(=N\\c3cccc(Br)c3)n2C)cc1", "targetOfAssay": "Pyricularia grisea", "Activity": 1.99}
{"sampleSmiles": "COc1ccc(NC(=O)Cc2cs/c(=N/c3ccc(OC(F)(F)F)cc3)n2C)cc1", "targetOfAssay": "Pyricularia grisea", "Activity": 1.99}
{"sampleSmiles": "CCCCc1ccc(/N=c2/scc(CC(=O)Nc3ccc(CC)cc3)n2C)cc1", "targetOfAssay": "Pyricularia grisea", "Activity": 1.99}
{"sampleSmiles": "Cn1c(CC(=O)Nc2ccc(OC(F)(F)F)cc2)cs/c1=N\\c1cccc(F)c1", "targetOfAssay": "Pyricularia grisea", "Activity": 1.62}
{"sampleSmiles": "Cc1ccc(NC(=O)Cc2cs/c(=N/c3ccc(F)cc3)n2C)cc1", "targetOfAssay": "Pyricularia grisea", "Activity": 1.96}
{"sampleSmiles": "COc1ccc(NC(=O)Cc2cs/c(=N\\c3ccc(F)c(Cl)c3)n2C)cc1", "targetOfAssay": "Pyricularia grisea", "Activity": 1.98}
{"sampleSmiles": "CCCCc1ccc(/N=c2\\scc(CC(=O)Nc3ccc(Cl)cc3)n2C)cc1", "targetOfAssay": "Pyricularia grisea", "Activity": 1.97}
{"sampleSmiles": "COc1ccc(NC(=O)Cc2cs/c(=N\\c3cccc([N+](=O)[O-])c3)n2C)cc1", "targetOfAssay": "Pyricularia grisea", "Activity": 1.99}
{"sampleSmiles": "Cn1c(CC(=O)Nc2ccc([N+](=O)[O-])cc2)cs/c1=N/c1ccc(F)cc1", "targetOfAssay": "Pyricularia grisea", "Activity": 0.9}
{"sampleSmiles": "CCc1ccc(/N=c2\\scc(CC(=O)Nc3ccc(OC)cc3)n2C)cc1", "targetOfAssay": "Pyricularia grisea", "Activity": 1.98}
{"sampleSmiles": "Cn1c(CC(=O)Nc2ccc(Br)cc2)cs/c1=N\\c1cccc(Br)c1", "targetOfAssay": "Pyricularia grisea", "Activity": 1.99}
{"sampleSmiles": "Cn1c(CC(=O)Nc2ccc(Cl)cc2)cs/c1=N\\c1ccc(Oc2ccccc2)cc1", "targetOfAssay": "Pyricularia grisea", "Activity": 1.92}
{"sampleSmiles": "CC(C)c1ccc(NC(=O)Cc2cs/c(=N/c3ccc(C(F)(F)F)cc3)n2C)cc1", "targetOfAssay": "Pyricularia grisea", "Activity": 1.8}
{"sampleSmiles": "CCc1ccc(NC(=O)Cc2cs/c(=N\\c3cccc(Cl)c3C)n2C)cc1", "targetOfAssay": "Pyricularia grisea", "Activity": 1.95}
{"sampleSmiles": "Cn1c(CC(=O)Nc2ccc(C(F)F)cc2)cs/c1=N\\c1ccc(Br)cc1", "targetOfAssay": "Pyricularia grisea", "Activity": 1.4}
{"sampleSmiles": "Cn1c(CC(=O)Nc2ccc(OC(F)(F)F)cc2)cs/c1=N/c1ccc(Cl)cc1", "targetOfAssay": "Pyricularia grisea", "Activity": 1.52}

###

We begin with a simple list: items and their reported Activity.
tested on: Pyricularia grisea; assay: Antifungal activity against Magnaporthe grisea infected rice plant assessed as logarithm of fungal control value at 100 ppm after 5 days; format: functional
measuredAttribute: Activity

{"sampleSmiles": "COc1ccc(NC(=O)Cc2cs/c(=N\\c3ccccc3Br)n2C)cc1", "measuredAttribute": "Activity", "valueMeasured": 1.92}
{"sampleSmiles": "Cn1c(CC(=O)Nc2ccc(Oc3ccccc3)cc2)cs/c1=N/c1ccc(Br)cc1", "measuredAttribute": "Activity", "valueMeasured": 1.23}
{"sampleSmiles": "Cc1ccc(/N=c2\\scc(CC(=O)Nc3ccc(OC(F)(F)F)cc3)n2C)c(C)c1", "measuredAttribute": "Activity", "valueMeasured": 1.23}
{"sampleSmiles": "CCCCc1ccc(/N=c2/scc(CC(=O)Nc3ccc([N+](=O)[O-])cc3)n2C)cc1", "measuredAttribute": "Activity", "valueMeasured": 1.11}
{"sampleSmiles": "COc1ccc(NC(=O)Cc2cs/c(=N\\c3ccc(C(F)(F)F)cc3)n2C)cc1", "measuredAttribute": "Activity", "valueMeasured": 1.99}
{"sampleSmiles": "CCOc1ccc(NC(=O)Cc2cs/c(=N\\c3ccc(F)cc3F)n2C)cc1", "measuredAttribute": "Activity", "valueMeasured": 1.9}
{"sampleSmiles": "Cn1c(CC(=O)Nc2ccc(OC(F)(F)F)cc2)cs/c1=N\\c1ccc(F)cc1", "measuredAttribute": "Activity", "valueMeasured": 0.9}
{"sampleSmiles": "COc1ccc(NC(=O)Cc2cs/c(=N\\c3ccc(Cl)c(C(F)(F)F)c3)n2C)cc1", "measuredAttribute": "Activity", "valueMeasured": 2}
{"sampleSmiles": "CCc1ccc(NC(=O)Cc2cs/c(=N\\c3ccc([N+](=O)[O-])cc3OC)n2C)cc1", "measuredAttribute": "Activity", "valueMeasured": 1.81}
{"sampleSmiles": "COc1ccc(NC(=O)Cc2cs/c(=N/c3ccc(Cl)cc3)n2C)cc1", "measuredAttribute": "Activity", "valueMeasured": 1.97}

###

We begin with a simple list: items and their reported Activity.
tested on: Pyricularia grisea; assay: Antifungal activity against Magnaporthe grisea infected rice plant assessed as logarithm of fungal control value at 100 ppm after 5 days; type: functional

{"sampleSmiles": "CCc1ccc(NC(=O)Cc2cs/c(=N/c3ccc(C#N)cc3)n2C)cc1", "Activity": 1.92}
{"sampleSmiles": "CCCCc1ccc(NC(=O)Cc2cs/c(=N\\c3cccc(F)c3)n2C)cc1", "Activity": 1}
{"sampleSmiles": "COc1ccc(NC(=O)Cc2cs/c(=N\\c3ccc(F)cc3F)n2C)cc1", "Activity": 1.97}
{"sampleSmiles": "CCc1ccc(NC(=O)Cc2cs/c(=N\\c3ccc(OC)cc3C)n2C)cc1", "Activity": 2}
{"sampleSmiles": "Cn1c(CC(=O)Nc2ccc(C#N)cc2)cs/c1=N\\c1ccc(F)cc1F", "Activity": 1.23}
{"sampleSmiles": "CCOc1ccc(NC(=O)Cc2cs/c(=N\\c3ccc(F)c(Cl)c3)n2C)cc1", "Activity": 1.94}
{"sampleSmiles": "CCc1ccc(NC(=O)Cc2cs/c(=N\\c3ccc(OC)cc3)n2C)cc1", "Activity": 1.99}

###

test system: Pyricularia grisea; test: Antifungal activity against Magnaporthe grisea infected rice plant assessed as logarithm of fungal control value at 100 ppm after 5 days; assay type: functional
measuredAttribute: Activity

{"compound": "COc1ccc(NC(=O)Cc2cs/c(=N\\c3ccccc3C(C)C)n2C)cc1", "measuredAttribute": "Activity", "valueMeasured": 1.9}
{"compound": "Cc1ccc(NC(=O)Cc2cs/c(=N\\c3ccc(F)cc3F)n2C)cc1", "measuredAttribute": "Activity", "valueMeasured": 1.99}
{"compound": "Cn1c(CC(=O)Nc2ccc(Cl)cc2)cs/c1=N\\c1ccc(-c2ccccc2)cc1", "measuredAttribute": "Activity", "valueMeasured": 1.98}
{"compound": "CCc1ccc(NC(=O)Cc2cs/c(=N/c3ccc(OC(F)(F)F)cc3)n2C)cc1 (stereo in doubt; 8)", "measuredAttribute": "Activity", "valueMeasured": 1.93}
{"compound": "Cn1c(CC(=O)Nc2ccc(Oc3ccccc3)cc2)cs/c1=N\\c1cccc(Br)c1", "measuredAttribute": "Activity", "valueMeasured": 0.9}
{"compound": "CCCCc1ccc(NC(=O)Cc2cs/c(=N\\c3ccc(F)c(Cl)c3)n2C)cc1", "measuredAttribute": "Activity", "valueMeasured": 1.3}
{"compound": "COc1ccc(/N=c2\\scc(CC(=O)Nc3ccc(C(F)F)cc3)n2C)cc1", "measuredAttribute": "Activity", "valueMeasured": 1.4}
{"compound": "COc1ccc(NC(=O)Cc2cs/c(=N\\c3cccc(C)c3)n2C)cc1", "measuredAttribute": "Activity", "valueMeasured": 1.98}
{"compound": "CCc1ccc(NC(=O)Cc2cs/c(=N\\c3ccc(F)c(Cl)c3)n2C)cc1", "measuredAttribute": "Activity", "valueMeasured": 1.98}
{"compound": "COc1ccc(NC(=O)Cc2cs/c(=N\\c3ccccc3Cl)n2C)cc1", "measuredAttribute": "Activity", "valueMeasured": 1.98}
